target: BteCAι; assay: stopped-flow CO2 hydration assay; conditions: CO2 substrate; 20 °C, pH 7.5, 10 mM HEPES (methods give 20 mM TRIS pH 8.3, 20 mM NaClO4); 15 min preincubation
Reported Ki values for a set of compounds
PARAMETER MEASURED: Ki (nM)

INSERT INTO measurements (compound, unit_info, quantitative_result) VALUES
  ('NS(=O)(=O)c1cc2c(cc1Cl)NCNS2(=O)=O [HCT, hydrochlorothiazide]', 'nM', 780),
  ('CCN[C@H]1CN(CCCOC)S(=O)(=O)c2sc(S(N)(=O)=O)cc21 [BRZ, brinzolamide]', 'nM', 3700),
  ('NC(N)=Nc1nc(CSCCC(N)=NS(N)(=O)=O)cs1 [FAM, Famotidine]', 'nM', 943);

Values were extracted from paper PMC7827628.
